Origin of values: patent US6376510B1

Field: ED50. Provide a value for each of the molecules that follow.
test system: anesthetized monkeys; assay: In vivo neuromuscular block and cardiovascular side effects, monkey (Example 8, Table 6); details: intravenous dose causing 50% neuromuscular block
Provide only the numeric value, understood in µg/kg.

Using the record for CC(=O)Oc1ccc(C[N+]2(C)C3CCCC2CC(OC(=O)CCCC(=O)OC2CC4CCCC(C2)[N+]4(C)Cc2ccc(OC(C)=O)c(OC(C)=O)c2)C3)cc1OC(C)=O.[Br-].[Br-] (stereo not drawn) , report its ED50. 75

# ED50 lookup, item CC(=O)Oc1ccc(C[N+]2(C)C3CCCC2CC(OC(=O)CCCCC(=O)OC2CC4CCCC(C2)[N+]4(C)Cc2ccc(OC(C)=O)c(OC(C)=O)c2)C3)cc1OC(C)=O.[Br-].[Br-] (stereo not drawn) 85

Dear colleague, I am looking for the recorded ED50 of the following molecule: CC(=O)Oc1ccc(C[N+]2(C)C3CCC2CC(OC(=O)C2C4C=CC(C4)C2C(=O)OC2CC4CCC(C2)[N+]4(C)Cc2ccc(OC(C)=O)c(OC(C)=O)c2)C3)cc1OC(C)=O.[Br-].[Br-] (stereo not drawn) [bis[N-(3,4-diacetoxybenzyl)tropanium-3α-yl]trans-3,6-endomet] 60

---

Test system: anesthetized cats (evoked responses of anterior tibial muscle)
Assay: animal or person
Details: cat; at 80-85% neuromuscular blocking dose
Method: a) Adult, male albino rats were anesthetized with pentobarbital injected intraperitoneally. The trachea was cannulated for artificial respiration via a small animal respirator. […] The intensity, onset, and duration of neuromuscular block and its type were determined with each agent. Through administering several doses, the doses corresponding to 50%, 80% and 90% neuromuscular block were determined. […]
I'd be grateful if you could share measured VB (vagal block) for these entries.
Answer format reminder: number followed by unit.

Please give the measured VB (vagal block) for this molecule: CC(=O)Oc1ccc(C[N+]2(C)[C@@H]3CC[C@H]2C[C@@H](OC(=O)CCCC(=O)O[C@H]2C[C@H]4CC[C@@H](C2)[N+]4(C)Cc2ccc(OC(C)=O)c(OC(C)=O)c2)C3)cc1OC(C)=O.[Br-].[Br-] (stereo partly shown) 8%

Returns the measured VB (vagal block) for the input molecule. Input: C[N+]1(CC2CC2)[C@@H]2CC[C@H]1C[C@@H](OC(=O)CCCCCCC(=O)O[C@H]1C[C@H]3CC[C@@H](C1)[N+]3(C)CC1CC1)C2.[Br-].[Br-] (stereo partly shown) [reference compound] 80%

Consider the molecule shown here: CC(=O)Oc1ccc(C[N+]2(C)[C@@H]3CC[C@H]2C[C@@H](OC(=O)C2CCCC(C(=O)O[C@H]4C[C@H]5CC[C@@H](C4)[N+]5(C)Cc4ccc(OC(C)=O)c(OC(C)=O)c4)C2)C3)cc1OC(C)=O.[Br-].[Br-] (stereo partly shown) What is its recorded VB (vagal block)? 34%

Return reported VB (vagal block); argument: COc1cc(C[N+]2(C)[C@@H]3CC[C@H]2C[C@@H](OC(=O)C2CCC2C(=O)O[C@H]2C[C@H]4CC[C@@H](C2)[N+]4(C)Cc2ccc(OC(C)=O)c(OC)c2)C3)ccc1OC(C)=O.[Br-].[Br-] (stereo partly shown) 20%

Consider the molecule shown here: C[N+]1(C)[C@@H]2CC[C@H]1C[C@@H](OC(=O)CCCCCCCCC(=O)O[C@H]1C[C@H]3CC[C@@H](C1)[N+]3(C)C)C2.[I-].[I-] [reference compound] What is its recorded VB (vagal block)? 100%

// VB (vagal block) lookup, key: CC(=O)Oc1ccc(C[N+]2(C)[C@@H]3CC[C@H]2C[C@@H](OC(=O)C2CCC2C(=O)O[C@H]2C[C@H]4CC[C@@H](C2)[N+]4(C)Cc2ccc(OC(C)=O)c(OC(C)=O)c2)C3)cc1OC(C)=O.[Br-].[Br-] (stereo partly shown) 12%

Entry under review: COc1cc(C[N+]2(C)[C@@H]3CC[C@H]2C[C@@H](OC(=O)C2CCCC(C(=O)O[C@H]4C[C@H]5CC[C@@H](C4)[N+]5(C)Cc4ccc(OC(C)=O)c(OC)c4)C2)C3)ccc1OC(C)=O.[Br-].[Br-] (stereo partly shown) . Reported VB (vagal block)? 33%

---

Give VB (vagal block) for every item shown.
test system: anesthetized juvenile pigs; assay: animal or person; format: in vivo; settings: pig, in vivo
Please give a number only; it is taken to be in %.

Request the reported VB (vagal block) associated with CC(=O)Oc1ccc(C[N+]2(C)C3CCCC2CC(OC(=O)CCCCCCC(=O)OC2CC4CCCC(C2)[N+]4(C)Cc2ccc(OC(C)=O)c(OC(C)=O)c2)C3)cc1OC(C)=O.[Br-].[Br-] (stereo not shown) 80

Any idea what its VB (vagal block) is? The molecule is CC(=O)Oc1ccc(C[N+]2(C)C3CCCC2CC(OC(=O)CCCCCC(=O)OC2CC4CCCC(C2)[N+]4(C)Cc2ccc(OC(C)=O)c(OC(C)=O)c2)C3)cc1OC(C)=O.[Br-].[Br-] (stereo not shown) 48

Which VB (vagal block) is reported for this molecule? CC(=O)Oc1ccc(C[N+]2(C)C3CCC2CC(OC(=O)C2C4C=CC(C4)C2C(=O)OC2CC4CCC(C2)[N+]4(C)Cc2ccc(OC(C)=O)c(OC(C)=O)c2)C3)cc1OC(C)=O.[Br-].[Br-] (stereo not drawn) [bis[N-(3,4-diacetoxybenzyl)tropanium-3β-yl]trans-3,6-endomet] 100

Look at this molecule and give its reported VB (vagal block). COc1cc2c(cc1OC)[C@@H](Cc1cc(OC)c(OC)c(OC)c1)[N+](C)(CCCOC(=O)CC/C=C/CCC(=O)OCCC[N+]1(C)CCc3cc(OC)c(OC)cc3[C@H]1Cc1cc(OC)c(OC)c(OC)c1)CC2 (stereo partly shown) [Mivacurium, reference compound] 17

Which VB (vagal block) value belongs to C=CC[N+]1([C@H]2C[C@H]3[C@@H]4CC[C@H]5C[C@H](O)[C@@H](N6CCOCC6)C[C@]5(C)[C@H]4CC[C@]3(C)[C@H]2OC(C)=O)CCCC1 [Rocuronium, reference compound] ? 47

# lookup: VB (vagal block) of CCC(=O)Oc1ccc(C[N+]2(C)C3CCCC2CC(OC(=O)CCCCCC(=O)OC2CC4CCCC(C2)[N+]4(C)Cc2ccc(OC(=O)CC)c(OC(=O)CC)c2)C3)cc1OC(=O)CC.[Br-].[Br-] (stereo not shown) 30

Please report the recorded VB (vagal block) for CC(=O)Oc1ccc(C[N+]2(C)C3CCCC2CC(OC(=O)CCCC(=O)OC2CC4CCCC(C2)[N+]4(C)Cc2ccc(OC(C)=O)c(OC(C)=O)c2)C3)cc1OC(C)=O.[Br-].[Br-] (stereo not shown) . 40

Which value of VB (vagal block) has been reported for CC(=O)Oc1ccc(C[N+]2(C)C3CCCC2CC(OC(=O)C2CCC2C(=O)OC2CC4CCCC(C2)[N+]4(C)Cc2ccc(OC(C)=O)c(OC(C)=O)c2)C3)cc1OC(C)=O.[Br-].[Br-] (stereo not shown) in the records? 15

So what does the record say about VB (vagal block) for COc1cc(C[N+]2(C)C3CCC2CC(OC(=O)C2C4C=CC(C4)C2C(=O)OC2CC4CCC(C2)[N+]4(C)Cc2ccc(OC(C)=O)c(OC)c2)C3)ccc1OC(C)=O.[Br-].[Br-] (stereo not shown) ? 43

Any idea what VB (vagal block) was measured for COc1cc(C[N+]2(C)C3CCC2CC(OC(=O)C2C4C=CC(C4)C2C(=O)OC2CC4CCC(C2)[N+]4(C)Cc2cc(OC)c(OC(C)=O)c(OC)c2)C3)cc(OC)c1OC(C)=O.[Br-].[Br-] (stereo not shown) ? 26

---

I'd be grateful if you could share measured Onset for these entries.
system: anesthetized rats (evoked responses of anterior tibial muscle); assay: In vivo neuromuscular block and cardiovascular side effects, anesthetized rat (Example 8, Table 3); details: rat; time to 80-85% neuromuscular block
Answer in min, number only, no unit symbol.

What does the record list as Onset for CCC(=O)Oc1ccc(C[N+]2(C)[C@@H]3CC[C@H]2C[C@@H](OC(=O)CCCC(=O)O[C@H]2C[C@H]4CC[C@@H](C2)[N+]4(C)Cc2ccc(OC(=O)CC)c(OC(=O)CC)c2)C3)cc1OC(=O)CC.[Br-].[Br-] (some centres unmarked) ? 0.7

I have this compound here, CC(=O)Oc1ccc(C[N+]2(C)C3CCC2CC(OC(=O)C2C4C=CC(C4)C2C(=O)OC2CC4CCC(C2)[N+]4(C)Cc2ccc(OC(C)=O)c(OC(C)=O)c2)C3)cc1OC(C)=O.[Br-].[Br-] (stereo not drawn) [bis[N-(3,4-diacetoxybenzyl)tropanium-3β-yl]trans-3,6-endomet] , and I need its recorded Onset. 0.68

---

System: anesthetized rats (evoked responses of anterior tibial muscle)
Experiment: In vivo neuromuscular block and cardiovascular side effects, anesthetized rat (Example 8, Table 3)
Conditions: rat; time to 80-85% neuromuscular block
Procedure: The neuromuscular blocking activity and other effects (e.g. cardiovascular side effects) of selected agents were investigated on several different experimental animals. […] a) Adult, male albino rats were anesthetized with pentobarbital injected intraperitoneally. […] The intensity, onset, and duration of neuromuscular block and its type were determined with each agent. Through administering several doses, the doses corresponding to 50%, 80% and 90% neuromuscular block were determined. […]
Provide the reported Onset of each item.
I only need the number, in min, no unit after it.

Hello, I am looking for reported Onset with anesthetized rats (evoked responses of anterior tibial muscle) for COc1cc(C[N+]2(C)[C@@H]3CC[C@H]2C[C@@H](OC(=O)C2CCC2C(=O)O[C@H]2C[C@H]4CC[C@@H](C2)[N+]4(C)Cc2cc(OC)c(OC(C)=O)c(OC)c2)C3)cc(OC)c1OC(C)=O.[Br-].[Br-] (some centres unmarked) . Could you help? 0.4

I'm curious: which Onset was measured for C[N+]1(Cc2ccccc2Br)[C@@H]2CC[C@H]1C[C@@H](OC(=O)CCCC(=O)O[C@H]1C[C@H]3CC[C@@H](C1)[N+]3(C)Cc1ccccc1Br)C2.[Br-].[Br-] (some centres unmarked) [reference compound] tested on anesthetized rats (evoked responses of anterior tibial muscle)? 2.3

# returns recorded Onset (system: anesthetized rats (evoked responses of anterior tibial muscle)) for CC(=O)Oc1ccc(C[N+]2(C)C3CCCC2CC(OC(=O)CCCCC(=O)OC2CC4CCCC(C2)[N+]4(C)Cc2ccc(OC(C)=O)c(OC(C)=O)c2)C3)cc1OC(C)=O.[Br-].[Br-] (centres unmarked) 0.5

Field: Onset (anesthetized rats (evoked responses of anterior tibial muscle)). Entry: COc1ccc(CC2c3cc(OC)c(OC)cc3CC[N+]2(C)CCC(=O)OCCCCCOC(=O)CC[N+]2(C)CCc3cc(OC)c(OC)cc3C2Cc2ccc(OC)c(OC)c2)cc1OC (centres unmarked) [Atracurium, reference compound] 1.5

Give anesthetized rats (evoked responses of anterior tibial muscle) Onset for CC(=O)Oc1ccc(C[N+]2(C)[C@@H]3CC[C@H]2C[C@@H](OC(=O)C2CCCC(C(=O)O[C@H]4C[C@H]5CC[C@@H](C4)[N+]5(C)Cc4ccc(OC(C)=O)c(OC(C)=O)c4)C2)C3)cc1OC(C)=O.[Br-].[Br-] (some centres unmarked) 0.65
